tested on: XG2 cell line; experiment: Melphalan IC50 with or without Pyridostatin, XG2 cell line; format: cell-based; conditions: Homo sapiens, 96 h, black bars, Melphalan and Pyridostatin at 1.25 μM for 4 days; first value printed for XG2 (FIG. 15)
Value Type: IC50 (nM)
Only the number, expressed in nM, is required.

// query IC50 value for entry N[C@@H](Cc1ccc(N(CCCl)CCCl)cc1)C(=O)O 1490

----------
tested on: XG2 cell line; experiment: Melphalan IC50 with or without Pyridostatin, XG2 cell line; assay type: cell-based; conditions: Homo sapiens, grey bars, Melphalan alone; first value printed for XG2 (FIG. 15)
Value Type: pIC50
Units for pIC50: none; it is -log10 of a concentration expressed in mol/L.

For N[C@@H](Cc1ccc(N(CCCl)CCCl)cc1)C(=O)O , what is its reported pIC50? 6.20

Hey, just so you know, these numbers are from patent US20250281502A1.
